biological target: Mitogen-activated protein kinase 1 (Homo sapiens) (UniProt P28482); details: Compound concentration 20.0 uM
Sequence (P28482 whole entry): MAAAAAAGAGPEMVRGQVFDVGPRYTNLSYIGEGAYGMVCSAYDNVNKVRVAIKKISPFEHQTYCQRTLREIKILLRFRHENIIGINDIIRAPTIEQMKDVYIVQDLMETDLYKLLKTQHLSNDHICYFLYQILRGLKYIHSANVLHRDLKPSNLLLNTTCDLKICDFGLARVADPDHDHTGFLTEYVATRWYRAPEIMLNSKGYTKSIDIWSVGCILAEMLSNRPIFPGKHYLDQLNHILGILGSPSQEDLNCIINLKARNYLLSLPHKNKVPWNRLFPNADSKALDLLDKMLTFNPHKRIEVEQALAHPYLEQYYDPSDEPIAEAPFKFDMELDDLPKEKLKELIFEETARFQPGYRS
Description: Thermal Shift Assay. Domain: start/stop: M1-S360
reported property: ΔTm
Express your answer as a number followed by its unit.

Input: Which ΔTm value belongs to CS(=O)(=O)c1ccc(Oc2cc(F)cc(C#N)c2)c2c1[C@H](O)[C@H](F)[C@@H]2F ?
Output: 0.64 °C

Input: For O=C(O)c1cccc(-c2ccc(-c3cn(C(=O)N4CCCCC4Cc4ccccc4)nn3)cc2)c1 (centres undefined) then?
Output: 0.56 °C

Input: For CCc1nc2c(C)cc(N3CCN(CC(=O)N4CC(O)C4)CC3)cn2c1N(C)c1nc(-c2ccc(F)cc2)c(C#N)s1 then?
Output: 0.06 °C

Input: For O=C1C(=O)N(Cc2ccccc2)c2ccc(S(=O)(=O)N3CCC[C@H]3COc3ccc(C(F)(F)F)cc3)cc21 then?
Output: -0.63 °C

Data provenance: ChEMBL document CHEMBL5724796
